test: protein stability index of a GFP-peptide fusion (GPS, HEK-293T) (PSI 1-6); higher = more stable; conditions: treatment: DMSO; c terminus: a fixed tail appended;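 also: 24-mer peptide tiles fused after GFP, lentivirally expressed, FACS-sorted into six equal bins by GFP/DsRed ratio, decoded by Illumina sequencing, PSI is the read-weighted mean bin number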
Classification scheme (protein stability index): low group = under 3, middle group = from 3 up to 4, high group = 4 and over

[
  {
    "Sequence": "QGYVSDIRRFLSAFHEPQVGLIQA [DFFB]",
    "Discrete Label": "low group"
  },
  {
    "Sequence": "RYDAEVVAIAQKFAALRASLVAPL [MYORG]",
    "Discrete Label": "low group"
  },
  {
    "Sequence": "WVNDPQRMDKRTLALLVLAHSSDV [GOLPH3L]",
    "Discrete Label": "low group"
  },
  {
    "Sequence": "RKVLQAVHRGDGANPFQAYLDVDL [RTN2]",
    "Discrete Label": "middle group"
  },
  {
    "Sequence": "NTLEGKKPGNNEGSGAPSPLSKSS [SNAP91]",
    "Discrete Label": "high group"
  },
  {
    "Sequence": "AKKIKLTAEAEELKPFFMKEVGSH [SOAT1]",
    "Discrete Label": "middle group"
  },
  {
    "Sequence": "GSPDDSHPKDGPSPGGTLMDLSER [DLC1]",
    "Discrete Label": "high group"
  },
  {
    "Sequence": "GNIKGIEGHSPGNLPKFCHECGTK [ZC2HC1A]",
    "Discrete Label": "middle group"
  },
  {
    "Sequence": "RTMCAVLGLVARQEDSGLRDHSVR [AUP1]",
    "Discrete Label": "low group"
  },
  {
    "Sequence": "GDQEGPRPARSTLDELLGRGMATK [FBF1]",
    "Discrete Label": "high group"
  },
  {
    "Sequence": "GSSSVALPKEASDGTGASQEPPTT [TOR1AIP2]",
    "Discrete Label": "high group"
  },
  {
    "Sequence": "RGIAIVSVLVILISIVIFCLETLP [KCNA4]",
    "Discrete Label": "low group"
  },
  {
    "Sequence": "RGRPRKLSKEYWDCLEGKKSKHAP [ELF3]",
    "Discrete Label": "high group"
  }
]
